experiment notes: Partition coefficient, log D of the compound at pH 3 by HPLC analysis
Type: physicochemical
measurement parameters: octanol/water
Short version: logD at least 2 is t, less is f.

Is reported logD greater than or equal to 2 here: COc1cc(/C=C/C(C)=O)ccc1OCc1cn(-c2ccnc3cc(Cl)ccc23)nn1
t

Does COc1ccc(C(=O)/C=C/c2ccc(OCCNc3ccnc4cc(Cl)ccc34)c(OC)c2)c(OC)c1 have a reported logD of at least 2?
t

# bool: logD of COc1cc(/C=C/C(C)=O)cc(CN2CCN(c3ccnc4cc(Cl)ccc34)CC2)c1O >= 2
f

Please check the record CC(=O)/C=C/c1ccc(O)c(CN2CCN(c3ccnc4cc(Cl)ccc34)CC2)c1 and state if its logD is at or above 2.
f

For this compound, is measured logD 2 or higher? COc1ccc(C(=O)/C=C/c2cc(CN3CCN(c4ccnc5cc(Cl)ccc45)CC3)c(O)c(OC)c2)c(OC)c1
t

Would you say COc1cc(/C=C/C(C)=O)ccc1OCCNc1ccnc2cc(Cl)ccc12 shows logD at minimum 2?
f

Check if logD >= 2 (inclusive). Item: COc1cc(/C=C/C(C)=O)ccc1OCCN1CCN(c2ccnc3cc(Cl)ccc23)CC1
f

Check if logD >= 2 (inclusive). Item: COc1ccc(C(=O)/C=C/c2ccc(OCc3cn(-c4ccnc5cc(Cl)ccc45)nn3)c(OC)c2)c(OC)c1
t

Check this compound for logD at or above 2: COc1ccc(C(=O)/C=C/c2ccc(OCCN3CCN(c4ccnc5cc(Cl)ccc45)CC3)c(OC)c2)c(OC)c1
t
